- System: NCI-H460
- protocol-summary: NCI tumour cell line growth inhibition, 48 h
Calls of active or inactive are those of the source. No stated cut-off is given here; in the data, active = GI50 up to about 1.1 µM and inactive = higher.
measured-attribute: GI50

# count of solved cases: 3
compound	GI50
O=C(CC1S/C(=N\c2ccccc2Cl)NC1=O)Nc1ccc(Cl)cc1 (configuration not stated)	> 100 µM (inactive)
CN(C(=O)c1ccco1)C(=S)N1CCN(c2ccccc2)CC1	> 100 µM (inactive)
C[N+]1(c2ccccc2)C=C(c2ccccc2)SC1=S (configuration not stated)	95.7 µM (inactive)

Now consider a different compound.
// GI50 lookup, key: O=c1[nH]nc(-c2ccccc2)n1/N=C/c1ccc([N+](=O)[O-])o1
5.12 µM (inactive)

---

- Test system: SK-MEL-5
- protocol-summary: NCI tumour cell line growth inhibition, 48 h
Activity calls are given as the source filed them. Rule as the data show it: active = GI50 up to about 1.1 µM and inactive = higher.
Lab note: assign the record to one of 1 for active, 0 for inactive

Some solved entries appear below for comparison.
molecule	class-label
Cc1c2c(c(C)c3c[n+](C)ccc13)Oc1ccccc1O2	0
COc1ccc2c(-c3ccc(O)cc3)c(Oc3ccccc3)c(=O)oc2c1	0
Oc1cc(-c2cccc(OCc3ccccc3)c2)nc2cc3c(cc12)OCO3	1
O=c1c2ccccc2nc(-c2ccccc2)n1O	0

Lab note: next molecule to report on.
# fetch the recorded call for COC1=NC(NC2OCC(O)C(O)C2O)=C(NC(C)=O)CN1C (stereo unspecified) here
0

---

- Tested on: PC-3
- protocol-summary: NCI tumour cell line growth inhibition, 48 h
Calls of active or inactive are those of the source. No stated cut-off is given here; in the data, active = GI50 up to about 1.1 µM and inactive = higher.
measured-attribute: GI50

molecule	GI50
c1ccc(CSC(SCc2ccccc2)c2cccc3ccccc23)cc1	> 10 µM (inactive)

// GI50 lookup, key: O=c1c(-c2ccccc2)c(SCCCN2CCCCC2)n(-c2ccccc2)c(=S)n1-c1ccccc1
16.5 µM (inactive)

// GI50 lookup, key: COc1ccc2c(c1)CCc1c-2n(CCN2CCCCC2)c2ccc(OC)cc12
> 100 µM (inactive)

// GI50 lookup, key: Cc1ccc(Cl)c2[nH]c(-c3ccccc3)cc(=O)c12
23.3 µM (inactive)

// GI50 lookup, key: COP(=O)(OC)[C@@](O)(c1ccccc1)[C@@H](O)[C@H](O)c1ccccc1
> 100 µM (inactive)

// GI50 lookup, key: COc1cc(/C=C2\N=C(c3ccccc3)N(c3nc4c(OC)ccc(OC)c4s3)C2=O)ccc1O
32.4 µM (inactive)

// GI50 lookup, key: COC(=O)[C@H](Cc1ccccc1)NC(=O)CCCCCCC(=O)NO
8.79 µM (inactive)

// GI50 lookup, key: CC(C)(C)C1=C(Br)C(O)(C(C)(C)C)OP1(=O)c1ccccc1 (centres undefined)
> 100 µM (inactive)

// GI50 lookup, key: C[C@H](c1ccccc1)N1C(=O)[C@@H](OCc2ccccc2)[C@H]1[C@H](COC(=O)COCc1ccccc1)OCc1ccccc1
77.4 µM (inactive)

---

- Tested on: MCF7
- protocol-summary: NCI tumour cell line growth inhibition, 48 h
Activity calls are given as the source filed them. No stated cut-off is given here; in the data, active = GI50 up to about 1.1 µM and inactive = higher.
Lab note: assign the record to one of active, inactive

molecule	class-label
O=C(NNc1ccnc2cc(Cl)ccc12)/C(=C\c1ccccc1Cl)NC(=O)c1ccccc1	inactive
CC1(C)OP(=O)(O)CC1=O	inactive
c1ccc(-c2cn3nc(N4CCOCC4)sc3n2)cc1	inactive
COc1c(OC(C)=O)c(OC(C)=O)cc2c1-c1ccc(OC)c(=O)cc1C(NC(C)=O)CC2 (stereo not given)	active
CC(=O)OCc1cc2ccccc2nc1C(Br)(Br)Br	inactive
CCOC(=O)c1c(-c2ccccc2)oc(=O)c(Cc2cccc3cccnc23)c1-c1ccccc1	inactive

# fetch the recorded call for COc1cc2c(cc1OC)C1CCc3ccccc3CN1CC2 (stereo not given) here
inactive

# fetch the recorded call for FC(F)(F)C(C1=NC(C(F)(F)F)(C(F)(F)F)N=C(N2CCOCC2)O1)C(F)(F)F here
inactive

# fetch the recorded call for Cc1c2c(c(C)c3c[n+](C)ccc13)Oc1ccccc1O2 here
inactive

# fetch the recorded call for CC1(CNCc2ccccc2)CC(CCc2ccccc2)N(C(=O)c2ccc([N+](=O)[O-])cc2)C1Cc1ccc(O)cc1 (stereo not given) here
inactive

Attribution: ChEMBL document CHEMBL1201862
